Data provenance is patent US20190367619A1.

Molecular target: T1, human galectin-10-His (recombinant human galectin-10 with TEV-cleavable N-terminal His-tag) (human)
T1 construct: SEC-MALLS: dimer in solution; also called Gal10-His; humanGal10-His
T1 chain: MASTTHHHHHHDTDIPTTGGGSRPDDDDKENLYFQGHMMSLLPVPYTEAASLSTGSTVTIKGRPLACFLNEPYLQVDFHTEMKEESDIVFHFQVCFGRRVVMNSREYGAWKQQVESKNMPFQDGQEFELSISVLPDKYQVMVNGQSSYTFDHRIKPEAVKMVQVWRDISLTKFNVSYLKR
Assay: BLI tandem on galectin-10-His; competitor: saturating 6A08 mIgG1 (10 ug/mL)
Output True for binding signal (nm) not less than -0.03 nm; output False otherwise.

1C09 mouse IgG1 (antibody, V domains shown, VH on mouse IgG1 heavy chain constant domains (CH1-CH2-CH3), VL on mouse lambda light chain constant domain; also called 1C09 mIgG1) VH: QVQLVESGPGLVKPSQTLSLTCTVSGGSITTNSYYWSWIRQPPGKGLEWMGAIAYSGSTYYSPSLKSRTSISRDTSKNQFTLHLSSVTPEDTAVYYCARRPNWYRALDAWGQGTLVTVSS VL: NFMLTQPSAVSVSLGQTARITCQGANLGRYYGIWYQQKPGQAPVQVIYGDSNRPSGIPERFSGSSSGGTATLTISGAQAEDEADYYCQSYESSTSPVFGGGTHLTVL    True

Ask: Does 6F06 mouse IgG1 (antibody, V domains shown, also called 6F06 mIgG1) VH: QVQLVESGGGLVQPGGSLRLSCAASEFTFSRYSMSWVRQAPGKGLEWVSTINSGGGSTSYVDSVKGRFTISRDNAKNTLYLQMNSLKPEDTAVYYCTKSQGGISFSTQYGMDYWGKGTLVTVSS VL: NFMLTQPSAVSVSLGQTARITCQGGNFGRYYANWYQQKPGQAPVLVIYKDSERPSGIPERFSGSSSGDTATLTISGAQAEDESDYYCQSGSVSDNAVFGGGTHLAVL have a reported binding signal (nm) of at least -0.03 nm?
Result: True

Ask: Does 1D11 mouse IgG1 (antibody, V domains shown, VH on mouse IgG1 heavy chain constant domains (CH1-CH2-CH3), VL on mouse lambda light chain constant domain; also called 1D011; 1D11 mIgG1) VH: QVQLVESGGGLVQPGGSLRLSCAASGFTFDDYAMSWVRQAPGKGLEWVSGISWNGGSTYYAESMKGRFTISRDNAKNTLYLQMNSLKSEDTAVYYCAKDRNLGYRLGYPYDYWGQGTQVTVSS VL: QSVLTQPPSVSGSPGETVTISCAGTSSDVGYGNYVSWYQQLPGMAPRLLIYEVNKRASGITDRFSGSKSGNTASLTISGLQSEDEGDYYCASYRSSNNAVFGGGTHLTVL have a reported binding signal (nm) of at least -0.03 nm?
Result: True

Ask: Does 6A08 mouse IgG1 (antibody, V domains shown, also called 6A08 mIgG1) VH: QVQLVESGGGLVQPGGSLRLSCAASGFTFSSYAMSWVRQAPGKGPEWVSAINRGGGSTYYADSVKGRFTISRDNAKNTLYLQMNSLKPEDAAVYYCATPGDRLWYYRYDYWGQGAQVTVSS VL: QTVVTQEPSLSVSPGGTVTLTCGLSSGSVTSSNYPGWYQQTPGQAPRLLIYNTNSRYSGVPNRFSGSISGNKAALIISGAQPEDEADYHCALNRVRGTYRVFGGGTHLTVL have a reported binding signal (nm) of at least -0.03 nm?
Result: False
